- system: human TASK-3 (Homo sapiens (Human))
- protocol_text: Inhibition of recombinant TASK-3 in stably transfected CHO cells (voltage-sensitive dye, 40 mM KCl depolarization)
- Format: cell-based
- experimental_parameters: 40 mM potassium chloride
- Method: B-2. Inhibition of Recombinant TASK-1 and TASK-3 In Vitro The investigations on the inhibition of the recombinant TASK-1 and TASK-3 channels were conducted using stably transfected CHO cells. […] 6 (5), 305-312 (2001); Molecular Devices FLIPR Application Note: Measuring membrane potential using the FLIPR® membrane potential assay kit on Fluorometric Imaging Plate Reader (FLIPR®) systems, http://www.moleculardevices.com/reagents-supplies/assay-kits/ion-channels/flipr-membrane-potential-assay-kits]. […]
pIC50: −log10 of the molar value.
measured_endpoint: pIC50

| compound | obs_value |
| --- | --- |
| O=C(C1CCCCC1)N1CC2CN(Cc3c(-c4ccc(Cl)cc4)nc4ccccn34)CC2C1 (centres unmarked) | 5.96 |
| O=C(OCCF)N1CC2CN(Cc3c(-c4ccc(Br)cc4)nc4ccccn34)CC2C1 (centres unmarked) | 5.74 |
| COc1ccc(C)c(C(=O)N2CC3CN(Cc4c(-c5ccc(Cl)cc5)nc5ccccn45)CC3C2)n1 (centres unmarked) | 8.34 |
| Cc1ccccc1C(=O)N1CC2CN(Cc3c(-c4ccc(Br)cc4)nc4ccccn34)CC2C1 (centres unmarked) | 5.89 |
| O=C(OC1CCCC1)N1CC2CN(Cc3c(-c4ccc(Br)cc4)nc4ccccn34)CC2C1 (centres unmarked) | 5.48 |
| O=C(Nc1ccc(Cl)c(C(F)(F)F)c1)N1CC2CN(Cc3c(-c4ccc(Br)cc4)nc4ccccn34)CC2C1 (centres unmarked) | 5.70 |
| COc1ccc(F)cc1C(=O)N1CC2CN(Cc3c(-c4ccc(Br)cc4)nc4ccccn34)CC2C1 (centres unmarked) | 6.02 |
| COc1cccc(C(=O)N2CC3CN(Cc4c(-c5ccc(Br)cc5)nc5ccccn45)CC3C2)c1 (centres unmarked) | 6.31 |

====

- system: human TASK-1 (Homo sapiens (Human))
- protocol_text: Inhibition of recombinant TASK-1 in stably transfected CHO cells (voltage-sensitive dye, 40 mM KCl depolarization)
- Assay type: cell-based
- experimental_parameters: 40 mM potassium chloride
Measured IC50 values are reported for all entries that follow.

| molecule | uom | IC50 |
| --- | --- | --- |
| O=C(Nc1ccc(F)cc1)N1CC2CN(Cc3c(-c4ccc(Br)cc4)nc4ccccn34)CC2C1 (stereo not shown) [Example 47] | nM | 1000 |
| Cc1ccccc1C(=O)N1CC2CN(Cc3c(-c4ccc(Cl)cc4)nc4ccccn34)CC2C1 (stereo not shown) [Example 20] | nM | 1020 |
| CC(NC(=O)N1CC2CN(Cc3c(-c4ccc(Br)cc4)nc4ccccn34)CC2C1)c1ccccc1 (stereo not shown) [Example 46] | nM | 460 |
| O=C(C1CCC1)N1CC2CN(Cc3c(-c4ccc(Br)cc4)nc4ccccn34)CC2C1 (stereo not shown) [Example 9] | nM | 749 |

====

- system: human TASK-1 (Homo sapiens (Human), UniProt O14649)
- Sequence (O14649 whole entry): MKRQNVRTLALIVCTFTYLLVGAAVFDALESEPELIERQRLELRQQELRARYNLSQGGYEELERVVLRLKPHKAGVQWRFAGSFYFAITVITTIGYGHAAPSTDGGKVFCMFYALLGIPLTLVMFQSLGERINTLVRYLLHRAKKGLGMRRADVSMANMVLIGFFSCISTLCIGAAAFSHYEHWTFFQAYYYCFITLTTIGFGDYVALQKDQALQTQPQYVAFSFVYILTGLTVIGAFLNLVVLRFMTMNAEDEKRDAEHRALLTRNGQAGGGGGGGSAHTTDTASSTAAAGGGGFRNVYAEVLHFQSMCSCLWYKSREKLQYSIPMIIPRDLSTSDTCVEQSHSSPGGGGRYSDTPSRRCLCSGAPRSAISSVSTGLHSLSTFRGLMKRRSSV
- protocol_text: Inhibition of recombinant TASK-1 in stably transfected CHO cells (voltage-sensitive dye, 40 mM KCl depolarization)
- Type: cell-based
- experimental_parameters: 40 mM potassium chloride
pIC50: −log10 of the molar value.
Measured pIC50 values are reported for all entries that follow.

| compound | pIC50 |
| --- | --- |
| CC(C)c1ccc(-c2nc3ccccn3c2CN2CC3CN(C(=O)C4CCCC4)CC3C2)cc1 (stereo not shown) | 6.52 |
| O=C(c1ccccc1)N1CC2CN(Cc3c(-c4ccc(Cl)cc4)nc4ccc(-c5ccccc5)cn34)CC2C1 (stereo not shown) [Example 160 in WO 2014/187922, reference compound] | 4.82 |
| O=C(Nc1ccc(F)cc1F)N1CC2CN(Cc3c(-c4ccc(Br)cc4)nc4ccccn34)CC2C1 (stereo not shown) | 5.82 |
| O=C(NC1CCCCC1)N1CC2CN(Cc3c(-c4ccc(Br)cc4)nc4ccccn34)CC2C1 (stereo not shown) | 5.64 |
| COc1ccc(C)c(C(=O)N2CC3CN(Cc4c(-c5ccc(Cl)cc5)nc5ccccn45)CC3C2)n1 (stereo not shown) | 7.03 |
| COc1ccc(Cl)c(C(=O)N2CC3CN(Cc4c(-c5ccc(Cl)cc5)nc5ccccn45)CC3C2)n1 (stereo not shown) | 5.85 |
| COc1ccc(F)cc1C(=O)N1CC2CN(Cc3c(-c4ccc(Br)cc4)nc4ccccn34)CC2C1 (stereo not shown) | 5.92 |

====

- system: human TASK-3 (Homo sapiens (Human))
- protocol_text: Inhibition of recombinant TASK-3 in stably transfected CHO cells (voltage-sensitive dye, 40 mM KCl depolarization)
- Type: cell-based
- experimental_parameters: 40 mM potassium chloride

| compound | IC50, µM |
| --- | --- |
| COc1cccc(C(=O)N2CC3CN(Cc4c(-c5ccc(Cl)cc5)nc5ccccn45)CC3C2)c1 (centres unmarked) [Example 17] | 1.9 |
| O=C(Nc1cc(C(F)(F)F)ccc1Cl)N1CC2CN(Cc3c(-c4ccc(Br)cc4)nc4ccccn34)CC2C1 (centres unmarked) [Example 44] | 2 |
| CC(C)c1ccc(-c2nc3ccccn3c2CN2CC3CN(C(=O)c4ccccc4F)CC3C2)cc1 (centres unmarked) [Example 26] | 0.31 |
| O=C(C1CCCCC1)N1CC2CN(Cc3c(-c4ccc(Br)cc4)nc4ccccn34)CC2C1 (centres unmarked) [Example 8] | 0.81 |
| CN(C(=O)N1CC2CN(Cc3c(-c4ccc(Br)cc4)nc4ccccn34)CC2C1)c1ccccc1 (centres unmarked) [Example 29] | 2.1 |
| O=C(OCc1ccccc1)N1CC2CN(Cc3c(-c4ccc(Br)cc4)nc4ccccn34)CC2C1 (centres unmarked) [Example 33] | 4.4 |
| O=C(C1CCC1)N1CC2CN(Cc3c(-c4ccc(Br)cc4)nc4ccccn34)CC2C1 (centres unmarked) [Example 9] | 0.66 |
| O=C(NC1CCCCC1)N1CC2CN(Cc3c(-c4ccc(Br)cc4)nc4ccccn34)CC2C1 (centres unmarked) [Example 45] | 5.8 |

====

- system: human TASK-3 (Homo sapiens (Human), UniProt Q9NPC2)
- Sequence (Q9NPC2 whole entry): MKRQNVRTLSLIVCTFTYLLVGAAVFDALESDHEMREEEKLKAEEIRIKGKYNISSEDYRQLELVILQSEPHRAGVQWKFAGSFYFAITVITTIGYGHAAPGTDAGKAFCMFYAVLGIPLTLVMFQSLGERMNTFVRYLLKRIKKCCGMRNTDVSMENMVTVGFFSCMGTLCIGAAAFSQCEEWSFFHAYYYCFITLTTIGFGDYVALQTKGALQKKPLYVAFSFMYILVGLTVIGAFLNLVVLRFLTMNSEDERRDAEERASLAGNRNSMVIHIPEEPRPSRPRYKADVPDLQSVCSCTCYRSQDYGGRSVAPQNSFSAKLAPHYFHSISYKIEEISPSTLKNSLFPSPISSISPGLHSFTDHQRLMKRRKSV
- protocol_text: Inhibition of recombinant TASK-3 in stably transfected CHO cells (voltage-sensitive dye, 40 mM KCl depolarization)
- Assay type: cell-based
- experimental_parameters: 40 mM potassium chloride
# note: exactly 2000 nM is not below, so it is not satisfied; use satisfied for IC50 strictly under it

| molecule | cat |
| --- | --- |
| COc1ccc(F)c(C(=O)N2CC3CN(Cc4c(-c5ccc(Cl)cc5)nc5ccccn45)CC3C2)n1 (centres unmarked) | satisfied |
| COc1ccc(F)cc1C(=O)N1CC2CN(Cc3c(-c4ccc(Cl)cc4)nc4ccccn34)CC2C1 (centres unmarked) | satisfied |
| COc1cccc(C(=O)N2CC3CN(Cc4c(-c5ccc(C(C)C)cc5)nc5ccccn45)CC3C2)n1 (centres unmarked) | satisfied |
| CC(C)OC(=O)N1CC2CN(Cc3c(-c4ccc(Br)cc4)nc4ccccn34)CC2C1 (centres unmarked) | satisfied |
| O=C(N1CC2CN(Cc3c(-c4ccc(Br)cc4)nc4ccccn34)CC2C1)N1CCCc2ccccc21 (centres unmarked) | satisfied |
| O=C(Nc1ccccc1F)N1CC2CN(Cc3c(-c4ccc(Br)cc4)nc4ccccn34)CC2C1 (centres unmarked) | not satisfied |
| CC(NC(=O)N1CC2CN(Cc3c(-c4ccc(Br)cc4)nc4ccccn34)CC2C1)c1ccccc1 (centres unmarked) | not satisfied |
| O=C(Nc1ccc(F)cc1)N1CC2CN(Cc3c(-c4ccc(Br)cc4)nc4ccccn34)CC2C1 (centres unmarked) | satisfied |

====

Measured pIC50 values are reported for all entries that follow.
- system: human TASK-3 (Homo sapiens (Human), UniProt Q9NPC2)
- protocol_text: Inhibition of recombinant TASK-3 in stably transfected CHO cells (voltage-sensitive dye, 40 mM KCl depolarization)
- Assay type: cell-based
- experimental_parameters: 40 mM potassium chloride
pIC50: −log10 of the molar value.

| compound | pIC50 |
| --- | --- |
| CC(C)c1ccc(-c2nc3ccccn3c2CN2CC3CN(C(=O)C4CCCC4)CC3C2)cc1 (centres unmarked) | 6.72 |
| O=C(c1cccc(OC(F)(F)F)c1)N1CC2CN(Cc3c(-c4ccc(Cl)cc4)nc4ccccn34)CC2C1 (centres unmarked) | 6.49 |
| O=C(Nc1ccc(F)cc1F)N1CC2CN(Cc3c(-c4ccc(Br)cc4)nc4ccccn34)CC2C1 (centres unmarked) | 5.72 |
| CC(C)(C)OC(=O)N1CC2CN(Cc3c(-c4ccc(Br)cc4)nc4ccccn34)CC2C1 (centres unmarked) | 5.27 |
| COc1ccccc1C(=O)N1CC2CN(Cc3c(-c4ccc(Br)cc4)nc4ccccn34)CC2C1 (centres unmarked) | 5.60 |
| O=C(c1ccccc1F)N1CC2CN(Cc3c(-c4ccc(Cl)cc4)nc4ccccn34)CC2C1 (centres unmarked) | 5.47 |
| O=C(c1ccccc1)N1CC2CN(Cc3c(-c4ccc(Cl)cc4)nc4ccc(-c5ccccc5)cn34)CC2C1 (centres unmarked) [Example 160 in WO 2014/187922, reference compound] | 5.62 |
| COc1cccc(C(=O)N2CC3CN(Cc4c(-c5ccc(Br)cc5)nc5ccccn45)CC3C2)n1 (centres unmarked) | 6.10 |
